EC50: recorded values
# experimental_system: hTRPM8 (Homo sapiens)
# protocol: Assay on TRPM8 modulators: calcium imaging (Fluo-4, Flexstation) in HEK293 cell line stably expressing hTRPM8
# reported_conditions: HEK293 cells stably expressing hTRPM8; calcium influx, Fluo-4, Flexstation 3; sigmoidal dose-response fit

Here's what some known entries look like.
> print(dat)
                                   molecule  reported.result
1  CSC(C)C(=O)N1CCCCC1c1ncc(-c2ccc(F)c(F)c2F)[nH]1 (stereo not drawn) [Compound 120]          < 50 nM
2  CCOC1CC1C(=O)N1CCCCC1c1nc(-c2ccccc2)c[nH]1 (stereo not drawn) [Compound 4]   300 to 1000 nM

Incoming: # lookup: EC50 of CCC(=O)N1CCCCC1c1nc(-c2ccccc2)c[nH]1 (stereo not drawn) [Compound 52]
Outgoing: 1000 to 35000 nM

Incoming: Try the molecule Cc1ccc(-c2cnc(C3CCCCN3C(=O)C(C)(C)C(C)C)[nH]2)cc1 (stereo not drawn) [Compound 141]
Outgoing: < 50 nM

Incoming: Try the molecule CSC(C)C(=O)N1CCCCC1c1ncc(-c2ccc(C)cc2)o1 (stereo not drawn) [Compound 133]
Outgoing: < 50 nM

Incoming: Try the molecule CSC(C)C(=O)N1CCCCC1c1nc(C)c(-c2ccccc2)[nH]1 (stereo not drawn) [Compound 47]
Outgoing: 50 to 300 nM

Incoming: Try the molecule CC(C)C(C)C(=O)N1CCCCC1c1nc(-c2ccccc2)c[nH]1 (stereo not drawn) [Compound 145]
Outgoing: 50 to 300 nM

Incoming: Try the molecule CCC(C)C(=O)N1CCCCC1c1nc(-c2ccccc2)c[nH]1 (stereo not drawn) [Compound 161]
Outgoing: 50 to 300 nM

Incoming: Try the molecule CSC(C)C(=O)N1CCCCC1c1nc(-c2ccncc2)c[nH]1 (stereo not drawn) [Compound 114]
Outgoing: 300 to 1000 nM

====

pEC50: recorded values
# experimental_system: hTRPM8 (Homo sapiens, UniProt Q7Z2W7)
# Sequence (Q7Z2W7 whole entry): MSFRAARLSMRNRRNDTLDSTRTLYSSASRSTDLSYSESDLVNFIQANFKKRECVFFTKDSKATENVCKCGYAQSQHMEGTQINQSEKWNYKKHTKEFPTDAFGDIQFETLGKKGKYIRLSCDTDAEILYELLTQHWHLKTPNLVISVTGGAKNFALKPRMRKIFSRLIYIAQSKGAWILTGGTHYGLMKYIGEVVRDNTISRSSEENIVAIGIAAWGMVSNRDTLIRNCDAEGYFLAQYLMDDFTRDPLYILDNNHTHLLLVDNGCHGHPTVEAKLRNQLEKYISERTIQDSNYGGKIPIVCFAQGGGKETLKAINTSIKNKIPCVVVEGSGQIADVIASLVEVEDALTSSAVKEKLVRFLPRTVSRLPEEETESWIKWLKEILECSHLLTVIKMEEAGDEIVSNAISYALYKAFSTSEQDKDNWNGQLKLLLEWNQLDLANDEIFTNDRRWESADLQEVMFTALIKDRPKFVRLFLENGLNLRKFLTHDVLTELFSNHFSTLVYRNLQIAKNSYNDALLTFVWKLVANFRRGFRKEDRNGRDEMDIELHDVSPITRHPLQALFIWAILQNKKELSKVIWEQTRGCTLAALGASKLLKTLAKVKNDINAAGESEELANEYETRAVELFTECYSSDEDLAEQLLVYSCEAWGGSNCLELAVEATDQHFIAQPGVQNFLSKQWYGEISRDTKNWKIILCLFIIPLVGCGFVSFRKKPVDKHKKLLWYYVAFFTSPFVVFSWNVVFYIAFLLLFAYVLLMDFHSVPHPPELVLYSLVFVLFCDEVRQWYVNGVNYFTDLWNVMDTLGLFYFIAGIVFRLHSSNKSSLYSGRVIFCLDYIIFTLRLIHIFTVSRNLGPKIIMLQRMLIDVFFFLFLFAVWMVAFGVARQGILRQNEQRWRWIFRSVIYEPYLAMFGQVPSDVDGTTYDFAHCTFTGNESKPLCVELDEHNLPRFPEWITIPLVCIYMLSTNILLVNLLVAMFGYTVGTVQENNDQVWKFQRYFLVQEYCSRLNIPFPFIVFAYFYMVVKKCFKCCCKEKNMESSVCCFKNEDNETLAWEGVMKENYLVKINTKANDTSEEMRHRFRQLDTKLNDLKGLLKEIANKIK
# protocol: Assay on TRPM8 modulators: calcium imaging (Fluo-4, Flexstation) in HEK293 cell line stably expressing hTRPM8
# reported_conditions: HEK293 cells stably expressing hTRPM8; calcium influx, Fluo-4, Flexstation 3; sigmoidal dose-response fit
pEC50: −log10 of the molar value.

> print(dat)
                                   compound  reported.result
1  CSC(C)C(=O)N1CCCCC1c1nc2ccccc2[nH]1 (stereo not drawn)     4.46 to 6.00

Incoming: # lookup: pEC50 of COC(=O)c1ccc(-c2cnc(C3CCCCN3C(=O)C(C)SC)[nH]2)cc1 (stereo not drawn)
Outgoing: 6.52 to 7.30

Incoming: Try the compound CCc1ccc(-c2cnc(C3CCCCN3C(=O)C(C)SC)[nH]2)cc1 (stereo not drawn)
Outgoing: > 7.30

Incoming: Try the compound CC[C@H](C)C(=O)N1CCCCC1c1ncc(-c2ccc(C)cc2)[nH]1 (stereo partly drawn)
Outgoing: > 7.30

Incoming: Try the compound CC(C(=O)N1CCCCC1c1nc(-c2ccccc2)c[nH]1)C(F)(F)F (stereo not drawn)
Outgoing: 6.52 to 7.30

Incoming: Try the compound CSC(C)C(=O)N1CCCCC1c1ncc(-c2ccc(C(C)=O)cc2)[nH]1 (stereo not drawn)
Outgoing: > 7.30

These entries and their values trace back to patent US12528801B2.
